Values compiled from ChEMBL document CHEMBL1201862.

Test system: IGROV-1
EXPERIMENTAL PROTOCOL: NCI tumour cell line growth inhibition, 48 h
Active and inactive are the calls of the source. Cut-off read from the data, not from the text of the source: active = GI50 up to about 1.1 µM and inactive = higher.
MEASURED METRIC: GI50

Answered cases to consult:
- COMPOUND: "N#CCC(=O)N/N=C1/C(=O)N(c2ccc(Cl)cc2)C(=O)C(=O)C1c1nc2ccccc2s1 (stereo not drawn)"
  STUDY TARGET: "IGROV-1"
  GI50: "> 100 µM (inactive)"
- COMPOUND: "Brc1ccc(-c2ccc(-c3ccc(Br)s3)s2)s1"
  STUDY TARGET: "IGROV-1"
  GI50: "> 100 µM (inactive)"
- COMPOUND: "Cc1cc2c(Br)cc(Br)c(O)c2nc1C(=O)c1ccccc1"
  STUDY TARGET: "IGROV-1"
  GI50: "21 µM (inactive)"
- COMPOUND: "O=C(O)CCNc1ncc2c(n1)-c1ccccc1OC2"
  STUDY TARGET: "IGROV-1"
  GI50: "36.2 µM (inactive)"
- COMPOUND: "CC(C)(CN1CCCCC1)C(/C=C/c1ccc(Cl)c(Cl)c1)=N\\NC(=O)N/N=C(/C=C/c1ccc(Cl)c(Cl)c1)C(C)(C)CN1CCCCC1"
  STUDY TARGET: "IGROV-1"
  GI50: "1.77 µM (inactive)"

// sample `COC(=O)c1ccc(/C=C(\c2ccc([N+](=O)[O-])o2)S(=O)(=O)c2ccc(NC(C)=O)cc2)o1` , its GI50 was 12.9 µM (inactive)

Entry COC(=O)NC1C(C)OC(OC2C/C=C(/C)C3C=CC4C(OC5CC(OC6CCC(OC7CC(O)C(OC8CCC(O)C(C)O8)C(C)O7)C(C)O6)C(OC(C)=O)C(C)O5)C(C)CC(C)C4C3(C)/C(O)=C3/C(=O)OC4(CC(C=O)=CC(O)C4/C=C\2C)C3=O)CC1(C)[N+](=O)[O-] (stereo not drawn) , GI50 reported as 3.44 µM (inactive)

Please fill in: GI50 reported for `Oc1c(CN2CCOCC2)ccc2cccnc12` = > 10 µM (inactive)

* * *

Below: a set of entries, each annotated with reported GI50.
System: PC-3
EXPERIMENTAL PROTOCOL: NCI tumour cell line growth inhibition, 48 h
Active and inactive are the calls of the source. Rule as the data show it: active = GI50 up to about 1.1 µM and inactive = higher. Square brackets hold non-standard residues; d marks the D form. Peptide text beside a SMILES is read from it. pGlu = O=C1CC[CH](C(=O)O)N1

- COMPOUND: "Cc1cc2nnc(C(N)=O)c(N)c2cc1C"
  GI50: "> 100 µM (inactive)"
- COMPOUND: "CN1CCc2c(sc3nc(S)nc(S)c23)C1"
  GI50: "> 100 µM (inactive)"
- COMPOUND: "CN(C)c1ccc(/C=C(\\NC(=O)c2ccccc2)C(=O)Nc2ccccc2C(=O)NCc2ccccc2)cc1"
  GI50: "> 100 µM (inactive)"

Short answer for NCC(=O)NC(CO)C(=O)O (centres undefined) : GI50 was > 100 µM (inactive)

Briefly, GI50 measured for NC(C(=O)O)C(O)c1c[nH]cn1 (centres undefined) : > 100 µM (inactive)

compound `Oc1c(CN2CCOCC2)ccc2cccnc12` , GI50 observed: > 10 µM (inactive)

The compound identified as Cc1ccc([N+](=O)[O-])cc1S(=O)(=O)Nc1ccc(C2=NN(c3ccc([N+](=O)[O-])cc3[N+](=O)[O-])C(c3cccs3)C2)cc1 (centres undefined) registered its GI50 at 25.9 µM (inactive)

GI50 measured on CC(NC(=O)C(Cc1c[nH]cn1)NC(=O)C1CCC(=O)N1)C(N)=O (stereo not drawn) ([pGlu]-His-Ala-NH2; configuration not given here) = > 100 µM (inactive)

Record summary for `Nc1nc(Cl)c(C=O)c(NCC2(CO)CCC2)n1` : reported GI50 = 17.7 µM (inactive)

The compound listed as `Oc1cnnc2nc3ccccc3n12` shows GI50 equal to > 100 µM (inactive)

For CC(C)[Si](OC12CCC(CC1O)CC2C(=O)O)(C(C)C)C(C)C (centres undefined) the compound record lists GI50 as 12.5 µM (inactive)

compound `Cc1c(CCCl)c(N=P(c2ccccc2)(c2ccccc2)c2ccccc2)n2c(nc3ccccc32)c1C#N` , GI50 observed: > 10 µM (inactive)

// GI50 lookup, compound = `COc1ccc2[nH]cc(C=C3C(=O)NC(=S)NC3=O)c2c1` , result: > 100 µM (inactive)

Recorded GI50 (compound C[C@@]1(c2ccccc2)O[C@@H]2C[C@H]3[C@@H]4CCC5=CC(=O)C=C[C@]5(C)[C@@]4(F)[C@@H](O)C[C@]3(C)[C@]2(C(=O)CO)O1 [AMCINAFIDE] ): 16 µM (inactive)

In plain terms, `C=C(C)C(=O)O[C@H]1[C@H]2[C@H](OC(=O)[C@H]2C)[C@H](O)[C@@H](C)[C@@H]2C=CC(=O)[C@]21C` has a documented GI50 of 4.51 µM (inactive)

For record CC(C)=CCc1ccc2[nH]c3c(c2c1)C(=O)C(=O)C(C)=C3C(O)C(C)O (centres undefined) the listed GI50 is 9.57 µM (inactive)

Consider COc1cc2c(cc1OC)[C@@H](Nc1ccc(C#N)cc1)C1COC(=O)[C@@H]1C2c1cc(OC)c(O)c(OC)c1 (some centres undefined) . Its measured GI50 is > 100 µM (inactive)

Reported GI50 for `Cc1cc(S(=O)(=O)Nc2nc(N)nc(N3CCOCC3)n2)c(SCC(=O)O)cc1Cl` was > 10 µM (inactive)

Briefly, GI50 measured for `O=C(/C=C/c1c(O)nc2ccccc2c1O)CC(=O)C(=O)Nc1cccc(O)c1` : > 100 µM (inactive)

* * *

Entries and their measured GI50 follow.
Test system: SK-MEL-2
EXPERIMENTAL PROTOCOL: NCI tumour cell line growth inhibition, 48 h
Active and inactive are the calls of the source. Cut-off read from the data, not from the text of the source: active = GI50 up to about 1.1 µM and inactive = higher.

Consider the worked cases shown below.
- COMPOUND: "C=C(CN(C)C)C1(c2ccccc2)CC2(CCCC2)C(=O)O1 (stereo not drawn)"
  STUDY TARGET: "SK-MEL-2"
  MEASURED METRIC: "GI50"
  VALUE OBSERVED: "> 100 µM (inactive)"
- COMPOUND: "Cc1cc(C)c2c(c1)C1=NCCN1C2(O)c1ccc(Cl)cc1 (stereo not drawn)"
  STUDY TARGET: "SK-MEL-2"
  MEASURED METRIC: "GI50"
  VALUE OBSERVED: "18.5 µM (inactive)"
- COMPOUND: "COc1cc2oc(-c3ccc(O)cc3)cc(=O)c2c(O)c1C1OC(CO)C(O)C(O)C1O (stereo not drawn)"
  STUDY TARGET: "SK-MEL-2"
  MEASURED METRIC: "GI50"
  VALUE OBSERVED: "> 100 µM (inactive)"
- COMPOUND: "CCCCCC/C=C\\CCCCCCCCCC1=CC(=O)C=C(OC)C1=O [IRISQUINONE A]"
  STUDY TARGET: "SK-MEL-2"
  MEASURED METRIC: "GI50"
  VALUE OBSERVED: "4.34 µM (inactive)"
- COMPOUND: "Nc1c(/N=N/c2ccc(-c3ccc(/N=N/c4c(O)ccc5cc(S(=O)(=O)O)cc(S(=O)(=O)O)c45)cc3)cc2)c(S(=O)(=O)O)cc2cc(S(=O)(=O)O)c(/N=N/c3ccccc3)c(O)c12"
  STUDY TARGET: "SK-MEL-2"
  MEASURED METRIC: "GI50"
  VALUE OBSERVED: "> 100 µM (inactive)"
- COMPOUND: "CC(NNC(=O)c1cc[n+]([BH2-]C#N)cc1)c1ccccc1 (stereo not drawn)"
  STUDY TARGET: "SK-MEL-2"
  MEASURED METRIC: "GI50"
  VALUE OBSERVED: "> 100 µM (inactive)"
- COMPOUND: "CN(C)CCN(C)c1ccc2c(=O)n(CCN(C)C)c(=O)n3c4ccccc4c(=O)c1c23"
  STUDY TARGET: "SK-MEL-2"
  MEASURED METRIC: "GI50"
  VALUE OBSERVED: "2.87 µM (inactive)"
- COMPOUND: "CCC(C)C(NC(=O)C(CCCCN)NC(=O)C(NC(=O)C(CCC(N)=O)NC(=O)C(CCCNC(=N)N)NC(C)=O)C(C)CC)C(=O)NC(Cc1c[nH]c2ccccc12)C(=O)NC(Cc1ccccc1)C(=O)NC(CCC(N)=O)C(=O)NC(CC(N)=O)C(=O)NC(CCCNC(=N)N)C(=O)NC(CCCNC(=N)N)C(=O)NC(CCSC)C(=O)NC(CCCCN)C(=O)NC(Cc1c[nH]c2ccccc12)C(=O)NC(CCCCN)C(=O)NC(CCCCN)C(N)=O (stereo not drawn)"
  STUDY TARGET: "SK-MEL-2"
  MEASURED METRIC: "GI50"
  VALUE OBSERVED: "> 50 µM (inactive)"
- COMPOUND: "CC(C)=C1CCC(CN(C)C)C1=O (stereo not drawn)"
  STUDY TARGET: "SK-MEL-2"
  MEASURED METRIC: "GI50"
  VALUE OBSERVED: "26.3 µM (inactive)"
- COMPOUND: "BrCC[N+]12CCCN1CCC2"
  STUDY TARGET: "SK-MEL-2"
  MEASURED METRIC: "GI50"
  VALUE OBSERVED: "20.5 µM (inactive)"

`C/C=C/C=N/N(c1nnc(-c2ccccc2)c(-c2ccccc2)n1)S(=O)(=O)c1ccc(C)cc1` tested on SK-MEL-2 gave GI50: 11.4 µM (inactive)
